- assay_info: PAMPA
- Assay type: in vitro ADME
- assay_context: PAMPA, PAMPA Pe, donor pH 6.2; acceptor pH 7.4
quantity: Papp (×10⁻⁶ cm/s)
Answers are plain numbers, in ×10⁻⁶ cm/s.

Exercise: Entry COc1cccc2c(NCc3ccccc3)nc(-n3c(N)nc4ccccc43)nc12 : reported Papp = ?
Solution: 628

====

- assay_info: Hepatic toxicity
- Assay type: cell-based
- assay_context: human, Fa2N-4 immortalized human hepatocytes
quantity: CC50 (µM)
One number for each entry, in µM.

Exercise: Entry COc1cccc2c(NCc3ccccc3)nc(-n3c(N)nc4ccccc43)nc12 [ML240] : reported CC50 = ?
Solution: 8.5

====

- assay_info: PAMPA
- Format: in vitro ADME
- assay_context: PAMPA, pH 7.4, PAMPA Pe, donor pH 7.4; acceptor pH 7.4
quantity: Papp

Exercise: Entry COc1cccc2c(NCc3ccccc3)nc(-n3c(N)nc4ccccc43)nc12 : reported Papp = ?
Solution: < 60.3 ×10⁻⁶ cm/s

====

- subject_of_test: p97 ATPase (Homo sapiens, UniProt P55072)
- Sequence (P55072 whole entry): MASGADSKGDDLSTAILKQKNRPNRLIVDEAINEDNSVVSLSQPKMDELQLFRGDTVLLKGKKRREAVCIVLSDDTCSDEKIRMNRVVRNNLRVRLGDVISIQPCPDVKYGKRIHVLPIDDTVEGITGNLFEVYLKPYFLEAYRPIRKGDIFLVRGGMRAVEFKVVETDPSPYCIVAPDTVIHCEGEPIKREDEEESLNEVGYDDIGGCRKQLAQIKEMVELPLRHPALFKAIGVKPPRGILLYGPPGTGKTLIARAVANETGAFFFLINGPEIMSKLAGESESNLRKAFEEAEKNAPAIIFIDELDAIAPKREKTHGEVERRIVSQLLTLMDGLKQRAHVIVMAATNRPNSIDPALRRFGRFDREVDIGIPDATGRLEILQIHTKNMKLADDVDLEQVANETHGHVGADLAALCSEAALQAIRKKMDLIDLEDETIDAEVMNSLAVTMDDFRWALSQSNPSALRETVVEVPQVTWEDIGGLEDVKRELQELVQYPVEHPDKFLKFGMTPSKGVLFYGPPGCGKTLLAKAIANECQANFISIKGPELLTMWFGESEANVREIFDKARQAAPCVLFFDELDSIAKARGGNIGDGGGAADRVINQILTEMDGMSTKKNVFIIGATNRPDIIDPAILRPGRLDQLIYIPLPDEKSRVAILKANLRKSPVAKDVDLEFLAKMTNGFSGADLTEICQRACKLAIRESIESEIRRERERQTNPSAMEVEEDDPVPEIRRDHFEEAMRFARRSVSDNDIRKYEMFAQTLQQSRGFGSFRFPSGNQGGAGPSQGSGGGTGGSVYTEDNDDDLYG
- assay_info: p97 ATPase assay
- Format: biochemical
- assay_context: IC50 ATPase, triplicate, mean ±SD
quantity: IC50 (µM)
One number for each entry, in µM.

# count of solved cases: 3
>>> result_value("CCCCOc1cccc2c(NCc3ccccc3)nc(N3CCOc4ccccc43)nc12")
2.63
>>> result_value("N#CCOc1cccc2c(NCc3ccccc3)nc(N3CCOc4ccccc43)nc12")
0.4
>>> result_value("COc1cccc2c(NCc3ccccc3)nc(-n3c(N)nc4cc(Cl)c(Cl)cc43)nc12")
25

Next molecule, please.
Exercise: Fill in the recorded IC50 for this molecule, with p97 ATPase (Homo sapiens, UniProt P55072) as test system: c1ccc(Nc2nc(Nc3ccccc3)c3ccccc3n2)cc1
Solution: 2.6

====

- Test system: SW403
- assay_info: Cytotoxicity / antiproliferative activity
- Assay type: cell-based
- assay_context: Homo sapiens, SW-403, 72 h, read-out: Cytotoxicity GI50 SW403 72 h
quantity: log10 of GI50 (log10 of the value in µM)
Heads up, the numbers here are log10 of GI50 in µM units.

# count of solved cases: 3
>>> result_value("COc1cccc2c(NCc3ccccc3)nc(N3CCOc4ccccc43)nc12")
1.11
>>> result_value("c1ccc(CNc2nc(N3CCOc4ccccc43)nc3ccccc23)cc1")
1.11
>>> result_value("COc1cccc2c(NCc3ccc(F)cc3)nc(N3CCOc4ccccc43)nc12")
0.97

Batch: log10 of GI50 for all items listed.
1. COc1cccc2c(NCc3ccccc3)nc(Nc3nc4ccccc4n3C)nc12
2. COCCOc1cccc2c(NCc3ccccc3)nc(N3CCOc4ccccc43)nc12
3. OCCOc1cccc2c(NCc3ccccc3)nc(N3CCOc4ccccc43)nc12
4. COc1cccc2c(NCc3ccccc3)nc(NCc3ccccc3)nc12

Solution:
0.15
0.90
0.97
-0.30

====

- Test system: HCT15
- assay_info: Cytotoxicity / antiproliferative activity
- Assay type: cell-based
- assay_context: Homo sapiens, HCT-15, 24 h, read-out: Cytotoxicity GI50 HCT15 24 h
Could you please report measured GI50 for the items listed next?

# count of solved cases: 3
>>> result_value("COc1cccc2c(NCc3ccccc3)nc(Nc3nc4ccccc4n3C)nc12")
"1.7 µM"
>>> result_value("c1ccc(CNc2nc(NCc3ccccc3)c3ccccc3n2)cc1")
"3.2 µM"
>>> result_value("COc1cccc2c(NCc3ccccc3)nc(N3CCOc4ccccc43)nc12")
"25 µM"

Next molecule, please.
Exercise: Entry COCCOc1cccc2c(NCc3ccccc3)nc(N3CCOc4ccccc43)nc12 : reported GI50 = ?
Solution: 12 µM
